- targetSystem: SARS-CoV-2 RBD (SARS-CoV-2, UniProt P0DTC2)
- assayInfo: ELISA
Consider the following binders; for each one, report its EC50.
Numbers only; they are read as ng/mL.

Query string: Output measured EC50 for this item: C160 (antibody, V domains shown) VH: QVQLVQSGAEVKKPGASVKVSCKASGYTFTSYGISWVRQAPGQGLEWMGWISAYNGNTNYAQKLQGRVTMTTDTSTSTAYMELRSLRSDDTAVYYCARVPASYGDDDYYYYYGMDVWGQGTTVTVSS VL: SYELTQPPSVSVSPGQTARITCSGDALPKQYAYWYQQKPGQAPVLVIYKDSERPSGIPERFSGSSSGTTVTLTISGVQAEDEADYYCQSADSSGTLWVFGGGTKLTVL
Result string: 2.54

Query string: Output measured EC50 for this item: C154 (antibody, V domains shown) VH: QVQLVESGGGVVQPGRSLRLSCAASGFTFSRYGMHWVRQAPGKGLEWVAVMSYDGSSKYYADSVKGRFTISRDNSKNTLCLQMNSLRAEDTAVYYCAKQAGPYCSGGSCYSAPFDYWGQGTLVTVSS VL: DIQMTQSPSSLSASVGDRVTITCQASQGISNYLNWYQQKPGKAPKLLIYDASNLETGVPSRFSGSGSGTDFTFTISSLQPEDIATYYCQQYDNLPITFGQGTRLEIK
Result string: 2.92

The measured values listed here are drawn from patent US11634477.
